B1: TPR 5TU (parent)
chain: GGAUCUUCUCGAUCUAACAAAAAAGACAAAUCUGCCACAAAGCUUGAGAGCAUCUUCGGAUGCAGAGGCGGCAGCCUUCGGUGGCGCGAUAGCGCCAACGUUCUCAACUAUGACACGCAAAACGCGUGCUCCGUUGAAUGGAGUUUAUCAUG

Variants of: B1
Experiment: polymerase ribozyme fitness, log enrichment relative to wild type (log ratio); higher = more active; in vitro selection for triplet polymerase activity
Variants at the floor of the assay were thinned out.
EXPERIMENTAL ENDPOINT: polymerase ribozyme fitness (log ratio)

1) A97C C103G C114G | -3.86
2) C51U C96G C132A | -3.26
3) G83A U135G G141A | -3.78
4) U31C C85G A98G | -1.26
5) C57U U102G | -1.87
